These measurements were taken from BindingDB's records for doi:10.1021/acs.jmedchem.9b01283.

# target-under-test: Diamine oxidase AOC1 (Homo sapiens)
# test: Inhibition of recombinant human DAO using putrescine as substrate preincubated with enzyme for 30 mins followed by substrate addition and measured every 2.5 mins for 30 mins by Amplex-Red oxidation assay
endpoint: pIC50
The quantity pIC50 is defined as the negative base-10 logarithm of the molar concentration.

Enquiry: Any idea what its pIC50 is? The molecule is Cc1c(-c2cccc(S(=O)(=O)N(C)C)c2)c2ccccc2n1CC(F)=CCN
Return: 5.40
